- target system: T1, human CD22 domain1-4-His (human, UniProt P20273 20-425)
- T1 construct: also called hCD22 domain1-4-His; not shown: His tag
- T1 sequence: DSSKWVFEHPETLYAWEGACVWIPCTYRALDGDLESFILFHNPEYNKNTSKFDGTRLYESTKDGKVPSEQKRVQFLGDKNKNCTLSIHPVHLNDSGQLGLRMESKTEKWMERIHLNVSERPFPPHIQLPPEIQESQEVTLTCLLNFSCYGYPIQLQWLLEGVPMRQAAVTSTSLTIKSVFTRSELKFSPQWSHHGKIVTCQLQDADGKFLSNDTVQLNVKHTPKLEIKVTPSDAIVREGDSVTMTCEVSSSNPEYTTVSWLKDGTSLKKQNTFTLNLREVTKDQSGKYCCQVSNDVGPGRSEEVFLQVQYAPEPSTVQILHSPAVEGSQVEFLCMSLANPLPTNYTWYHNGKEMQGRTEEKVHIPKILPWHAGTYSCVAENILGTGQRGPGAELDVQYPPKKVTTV
- experimental protocol: ELISA, plate coated with human CD22 domain1-4-His
experimental readout: binding result

>>> meas_value("F1.60.9 (antibody, human IgG1, kappa, V domains shown, Chimeric IgG1 kappa) VH: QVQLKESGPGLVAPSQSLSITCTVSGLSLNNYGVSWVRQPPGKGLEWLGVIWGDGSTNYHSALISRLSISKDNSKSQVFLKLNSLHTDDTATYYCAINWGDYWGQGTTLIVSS VL: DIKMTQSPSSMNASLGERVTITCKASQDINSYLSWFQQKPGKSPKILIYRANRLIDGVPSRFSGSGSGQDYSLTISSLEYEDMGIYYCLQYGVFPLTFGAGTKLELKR")
"no binding"
>>> meas_value("F1.105.11 (antibody, human IgG1, kappa, V domains shown, Chimeric IgG1 kappa) VH: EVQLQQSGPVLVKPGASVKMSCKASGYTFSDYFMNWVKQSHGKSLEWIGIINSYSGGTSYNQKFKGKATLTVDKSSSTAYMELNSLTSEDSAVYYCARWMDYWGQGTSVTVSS VL: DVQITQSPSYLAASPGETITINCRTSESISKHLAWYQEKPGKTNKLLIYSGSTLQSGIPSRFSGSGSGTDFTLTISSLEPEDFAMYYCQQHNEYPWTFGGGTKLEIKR")
"no binding"
